# testSummary: In vitro EDTA challenge study
# Assay type: physicochemical
# testParameters: EDTA 100-fold, pH 5.0, 37 C, 1 h
# Experimental: In vitro EDTA challenge study. […] Samples were analyzed at 30 min, 1 h, 3 h, 6 h, 1 d, 3 d, 5 d and 7 d post administration to EDTA by radio-TLC using Varian ITLC-SA strips and 0.1 M EDTA (pH 5) as the mobile phase and gamma counting using an energy window of 500-1500 keV and standard protocols .
valueKind: % Intact of 89Zr-complexes (%)

compound="O=C1CN2CCN3CCN4CCN(CC2)CC(=O)[O][89Zr]([O]1)([O]C(=O)C3)[O]C(=O)C4 [89Zr-DOTA]" datavalue=100
compound="CC(=O)N1CCCCCNC(=O)CCC(=O)N2CCCCCNC(=O)CCC(=O)N(CCCCCN)[O][89Zr+]([O]1)[O]2 [89Zr-DFO, reference compound]" datavalue=85.5
compound="O=P1(O)CN2CCN3CCN4CCN(CC2)CP(=O)(O)[O][89Zr]([O]1)([O]P(=O)(O)C3)[O]P(=O)(O)C4 [89Zr-DOTP]" datavalue=98.6
compound="NC(=O)CN1CCN(CC(N)=O)CCN(CC(N)=O)CCN(CC(N)=O)CC1.[89Zr+4] [89Zr-DOTAM]" datavalue=97.7

----------
# testSummary: In vitro metal competition study
# Type: physicochemical
# testParameters: Gd3+, PBS pH 7.4, 37 C, 1 d
valueKind: % Intact of 89Zr-complexes (%)

compound="O=P1(O)CN2CCN3CCN4CCN(CC2)CP(=O)(O)[O][89Zr]([O]1)([O]P(=O)(O)C3)[O]P(=O)(O)C4 [89Zr-DOTP]" datavalue=97.9
compound="CC(=O)N1CCCCCNC(=O)CCC(=O)N2CCCCCNC(=O)CCC(=O)N(CCCCCN)[O][89Zr+]([O]1)[O]2 [89Zr-DFO, reference compound]" datavalue=98.8
compound="O=C1CN2CCN3CCN4CCN(CC2)CC(=O)[O][89Zr]([O]1)([O]C(=O)C3)[O]C(=O)C4 [89Zr-DOTA]" datavalue=100
compound="NC(=O)CN1CCN(CC(N)=O)CCN(CC(N)=O)CCN(CC(N)=O)CC1.[89Zr+4] [89Zr-DOTAM]" datavalue=90.6

----------
# testSummary: In vitro metal competition study
# Type: physicochemical
# testParameters: Mg2+, PBS pH 7.4, 37 C, 4 d
valueKind: % Intact of 89Zr-complexes (%)

compound="O=P1(O)CN2CCN3CCN4CCN(CC2)CP(=O)(O)[O][89Zr]([O]1)([O]P(=O)(O)C3)[O]P(=O)(O)C4 [89Zr-DOTP]" datavalue=98.1
compound="O=C1CN2CCN3CCN4CCN(CC2)CC(=O)[O][89Zr]([O]1)([O]C(=O)C3)[O]C(=O)C4 [89Zr-DOTA]" datavalue=100
compound="CC(=O)N1CCCCCNC(=O)CCC(=O)N2CCCCCNC(=O)CCC(=O)N(CCCCCN)[O][89Zr+]([O]1)[O]2 [89Zr-DFO, reference compound]" datavalue=97.6
compound="NC(=O)CN1CCN(CC(N)=O)CCN(CC(N)=O)CCN(CC(N)=O)CC1.[89Zr+4] [89Zr-DOTAM]" datavalue=87.4

----------
# testSummary: In vitro metal competition study
# Assay type: physicochemical
# testParameters: Co2+, PBS pH 7.4, 37 C, 4 d
valueKind: % Intact of 89Zr-complexes (%)

compound="CC(=O)N1CCCCCNC(=O)CCC(=O)N2CCCCCNC(=O)CCC(=O)N(CCCCCN)[O][89Zr+]([O]1)[O]2 [89Zr-DFO, reference compound]" valuekind="% Intact of 89Zr-complexes" datavalue=98.1
compound="O=P1(O)CN2CCN3CCN4CCN(CC2)CP(=O)(O)[O][89Zr]([O]1)([O]P(=O)(O)C3)[O]P(=O)(O)C4 [89Zr-DOTP]" valuekind="% Intact of 89Zr-complexes" datavalue=95.3
compound="NC(=O)CN1CCN(CC(N)=O)CCN(CC(N)=O)CCN(CC(N)=O)CC1.[89Zr+4] [89Zr-DOTAM]" valuekind="% Intact of 89Zr-complexes" datavalue=85.8
compound="O=C1CN2CCN3CCN4CCN(CC2)CC(=O)[O][89Zr]([O]1)([O]C(=O)C3)[O]C(=O)C4 [89Zr-DOTA]" valuekind="% Intact of 89Zr-complexes" datavalue=100
